- MEASURED_TARGET: ~100 representative kinases (Homo sapiens, UniProt Q8TD08)
- Construct: Recombinant protein kinase domains with a concentration of 2 μM
- Sequence (Q8TD08 whole entry, the tested form may be a part): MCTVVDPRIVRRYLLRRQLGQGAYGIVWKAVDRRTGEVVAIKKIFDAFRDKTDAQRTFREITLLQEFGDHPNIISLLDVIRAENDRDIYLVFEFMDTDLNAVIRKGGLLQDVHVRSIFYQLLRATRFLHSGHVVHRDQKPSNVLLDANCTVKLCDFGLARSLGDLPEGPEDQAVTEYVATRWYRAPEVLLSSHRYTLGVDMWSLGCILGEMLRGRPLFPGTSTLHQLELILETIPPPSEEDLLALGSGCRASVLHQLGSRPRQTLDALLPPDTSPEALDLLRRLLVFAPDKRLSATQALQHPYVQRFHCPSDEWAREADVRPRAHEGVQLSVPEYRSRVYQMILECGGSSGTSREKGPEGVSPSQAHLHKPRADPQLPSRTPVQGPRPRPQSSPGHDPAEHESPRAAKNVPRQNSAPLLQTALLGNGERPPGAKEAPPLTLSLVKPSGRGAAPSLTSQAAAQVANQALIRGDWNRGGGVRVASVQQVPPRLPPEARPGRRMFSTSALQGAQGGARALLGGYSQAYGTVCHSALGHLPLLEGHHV
- EXPERIMENTAL_DETAILS: DSF 100 kinase selectivity screen;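 also: compound tested at 20 µM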
- Format: binding
- ASSAY_CONDITIONS: protein MAPK15; average of three replicates
Label t when dTm >= 6 K; otherwise f.

Record excerpt, results attached:
O=C(Nc1ccc(Cl)cc1)C1(C(=O)Nc2cccc(-c3c[nH]c4ncnc(N5CCOCC5)c34)c2)CC1 = t
O=C(Nc1cccc(-c2c[nH]c3ncnc(N4CCOCC4)c23)c1)C1(C(=O)Nc2ccc(F)c(F)c2)CC1 = t
O=C(Nc1ccccc1)C1(C(=O)Nc2cccc(-c3c[nH]c4ncnc(N5CCOCC5)c34)c2)CC1 = t

Challenge: Can O=C(Nc1cccc(-c2c[nH]c3ncnc(N4CCOCC4)c23)c1)C1(C(=O)Nc2cc(Br)c(F)cc2F)CC1 be said to have dTm at or above 6 K?
Response given: f

Challenge: Check if dTm >= 6 K (inclusive). Item: COc1cc(NC(=O)C2(C(=O)Nc3cccc(-c4c[nH]c5ncnc(N6CCOCC6)c45)c3)CC2)ccc1F
Response given: t

Challenge: Entry C[C@@H]1CN(c2cc(-c3n[nH]c4ccc(OC5(C)CC5)cc34)ncn2)C[C@H](C)O1 : is its dTm no less than 6 K?
Response given: f

Challenge: Does O=C(Nc1cc(F)cc(Br)c1)C1(C(=O)Nc2cccc(-c3c[nH]c4ncnc(N5CCOCC5)c34)c2)CC1 have a reported dTm of at least 6 K?
Response given: f

Challenge: Test whether the compound Cn1cc(-c2c[nH]c3ncnc(N4CCOCC4)c23)cc1C#N records dTm of 6 K or higher.
Response given: f

Challenge: Determine whether measured dTm meets or exceeds 6 K for CCNc1nc(Nc2cc(F)c(C(=O)N3CCOCC3)cc2OC)ncc1C(F)(F)F
Response given: f

----------
- MEASURED_TARGET: ~100 representative kinases (Homo sapiens, UniProt O95747)
- Construct: Recombinant protein kinase domains with a concentration of 2 μM
- Sequence (O95747 whole entry, the tested form may be a part): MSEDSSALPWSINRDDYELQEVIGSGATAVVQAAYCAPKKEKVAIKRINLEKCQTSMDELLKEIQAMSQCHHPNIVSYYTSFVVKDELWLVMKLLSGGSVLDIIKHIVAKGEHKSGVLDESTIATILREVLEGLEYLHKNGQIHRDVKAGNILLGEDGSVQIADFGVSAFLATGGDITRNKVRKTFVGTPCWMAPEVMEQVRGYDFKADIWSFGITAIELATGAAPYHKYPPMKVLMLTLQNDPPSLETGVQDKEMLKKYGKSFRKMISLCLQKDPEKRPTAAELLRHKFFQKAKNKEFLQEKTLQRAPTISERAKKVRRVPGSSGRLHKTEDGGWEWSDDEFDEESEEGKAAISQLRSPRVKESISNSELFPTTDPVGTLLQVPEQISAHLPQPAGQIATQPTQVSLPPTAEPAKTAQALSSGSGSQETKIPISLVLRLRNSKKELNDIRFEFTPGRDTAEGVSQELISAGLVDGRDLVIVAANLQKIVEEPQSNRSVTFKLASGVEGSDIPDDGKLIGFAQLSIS
- EXPERIMENTAL_DETAILS: DSF 100 kinase selectivity screen;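 also: compound tested at 20 µM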
- Assay type: binding
- ASSAY_CONDITIONS: protein OSR1; average of three replicates
MEASURED_ATTRIBUTE: dTm

C[C@@H]1CN(c2cc(-c3n[nH]c4ccc(OC5(C)CC5)cc34)ncn2)C[C@H](C)O1 = 0.07 K
Cc1cc(F)ccc1NC(=O)C1(C(=O)Nc2cccc(-c3c[nH]c4ncnc(N5CCOCC5)c34)c2)CC1 = 0.69 K
Cc1ccc(-n2nc(C(C)(C)C)cc2NC(=O)Nc2cccc(-c3c[nH]c4nc(Cl)nc(N5CCOCC5)c34)c2)cc1 = -1.12 K

Challenge: Entry under review: CC(=O)N1CCN(c2nc(Cl)nc3[nH]cc(-c4cccc(NC(=O)Nc5cc(C(C)(C)C)nn5-c5ccc(C)cc5)c4)c23)CC1 . Reported dTm?
Response given: -2.10 K

Challenge: Look up dTm for this compound: COc1cc(C(=O)N2CCOCC2)c(F)cc1Nc1nc(N(C)C)c2c(Cl)c[nH]c2n1
Response given: 1.88 K

Challenge: # query: dTm of entry CN[C@@H]1C[C@H]2O[C@@](C)([C@@H]1OC)n1c3ccccc3c3c4c(c5c6ccccc6n2c5c31)C(=O)NC4
Response given: 8.41 K

Challenge: Which dTm value is on record for O=C(Nc1ccc(F)cc1)C1(C(=O)Nc2cccc(-c3c[nH]c4ncnc(N5CCOCC5)c34)c2)CC1 ?
Response given: 1.55 K

----------
- MEASURED_TARGET: ~100 representative kinases (Homo sapiens)
- Construct: Recombinant protein kinase domains with a concentration of 2 μM
- EXPERIMENTAL_DETAILS: DSF 100 kinase selectivity screen;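 also: compound tested at 20 µM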
- Type: binding
- ASSAY_CONDITIONS: Protein EPHB3A; average of three replicates
- Procedure: Recombinant protein kinase domains with a concentration of 2 μM were mixed with a 20 μM compound solution in dimethyl sulfoxide (DMSO), 20 mM Hepes (pH 7.5), and 500 mM NaCl. SYPRO Orange (5000×, Invitrogen) was added as a fluorescence probe (1μl/ml). Subsequently, temperature-dependent protein unfolding profiles were measured using the QuantStudio 5 realtime PCR machine (Thermo Fisher Scientific, Waltham, MA, USA). […] The temperature was raised with a step rate of 3°C/min. […]
MEASURED_ATTRIBUTE: dTm (K)
The response must be a number in K with no trailing unit.

Completed entries (count: 5):
O=C(Nc1ccc(Cl)cc1)C1(C(=O)Nc2cccc(-c3c[nH]c4ncnc(N5CCOCC5)c34)c2)CC1 [Compound 13] = 5.32
CCSc1nc(NC)c2c(-c3cccc(NC(=O)Nc4cc(C(C)(C)C)nn4-c4ccc(C)cc4)c3)c[nH]c2n1 [Compound 32] = -3.33
Cc1cc(NC(=O)C2(C(=O)Nc3ccc(F)cc3)CC2)cc(-c2c[nH]c3ncnc(N4CCOCC4)c23)c1 [Compound 6] = 0.34
CC(=O)N1CCN(c2nc(Cl)nc3[nH]cc(-c4cccc(NC(=O)Nc5cc(C(C)(C)C)nn5-c5ccc(C)cc5)c4)c23)CC1 [Compound 31] = -1.56
CN[C@@H]1C[C@H]2O[C@@](C)([C@@H]1OC)n1c3ccccc3c3c4c(c5c6ccccc6n2c5c31)C(=O)NC4 [Staurosporine] = 7.02

Challenge: Query: dTm; subject: O=C(Nc1ccc(F)cc1)C1(C(=O)Nc2cccc(-c3c[nH]c4ncnc(N5CCOCC5)c34)c2)CC1 [Compound 2]
Response given: 2.82

Challenge: Please look up its dTm: O=C(Nc1cccc(-c2c[nH]c3ncnc(N4CCOCC4)c23)c1)C1(C(=O)Nc2cc(Br)c(F)cc2F)CC1 [Compound 25]
Response given: -0.88

Challenge: Looking for the measured dTm of Cc1cc(NC(=O)C2(C(=O)Nc3cccc(-c4c[nH]c5ncnc(N6CCOCC6)c45)c3)CC2)ccc1F [Compound 20] , can you help?
Response given: 3.99

Challenge: I am curious: what dTm value has been reported for Cc1ccc(NC(=O)C2(C(=O)Nc3cccc(-c4c[nH]c5ncnc(N6CCOCC6)c45)c3)CC2)cc1 [Compound 14] ?
Response given: 3.71

Challenge: Fill in: dTm of O=C(Nc1cccc(-c2c[nH]c3ncnc(N4CCOCC4)c23)c1)c1cccn(-c2ccc(F)cc2)c1=O [Compound 4] is ___
Response given: 3.66

Challenge: Which dTm reading was recorded for the molecule COc1cc(S(C)(=O)=O)ccc1Nc1nc(N(C)C)c2c(Cl)c[nH]c2n1 [Compound 37] ?
Response given: -1.89

Challenge: Query (molecule): O=C(Nc1cccc(-c2c[nH]c3ncnc(N4CCOCC4)c23)c1)C1(C(=O)Nc2ccc(F)cc2F)CC1 [Compound 23] ; field requested: dTm
Response given: 1.84

Challenge: Can you look up the measured dTm of O=C(Nc1cccc(-c2c[nH]c3ncnc(N4CCOCC4)c23)c1)C1(C(=O)Nc2ccc(F)c(Br)c2F)CC1 [Compound 26] for me?
Response given: -0.51

Challenge: Entry under review: CCc1ccc(NC(=O)C2(C(=O)Nc3cccc(-c4c[nH]c5ncnc(N6CCOCC6)c45)c3)CC2)cc1 [Compound 15] . Reported dTm?
Response given: 4.01

----------
- MEASURED_TARGET: ~100 representative kinases (Homo sapiens)
- Construct: Recombinant protein kinase domains with a concentration of 2 μM
- EXPERIMENTAL_DETAILS: DSF 100 kinase selectivity screen;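 also: compound tested at 20 µM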
- Format: binding
- ASSAY_CONDITIONS: Protein CAMK1G; average of three replicates
MEASURED_ATTRIBUTE: dTm (K)
Your answer is read as K, so omit the unit and give the number.

O=C(Nc1ccc(F)cc1)C1(C(=O)Nc2cccc(-c3c[nH]c4ncnc(N5CCOCC5)c34)c2)CC1 [Compound 2] = 1.77
O=C(Nc1cccc(-c2c[nH]c3ncnc(N4CCOCC4)c23)c1)c1cccn(-c2ccc(F)cc2)c1=O [Compound 4] = 1.22
C[C@@H]1CN(c2cc(-c3n[nH]c4ccc(OC5(C)CC5)cc34)ncn2)C[C@H](C)O1 [MLi2] = 3.50

For the next question, use this molecule.
Challenge: Enter reported dTm observed with ~100 representative kinases (Homo sapiens) for COc1cc(C(=O)N2CCOCC2)c(F)cc1Nc1nc(N(C)C)c2c(Cl)c[nH]c2n1 [Compound 36]
Response given: 4.24

----------
// reported dTm for each item listed
- MEASURED_TARGET: ~100 representative kinases (Homo sapiens)
- Construct: Recombinant protein kinase domains with a concentration of 2 μM
- EXPERIMENTAL_DETAILS: DSF 100 kinase selectivity screen;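 also: compound tested at 20 µM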
- Type: binding
- ASSAY_CONDITIONS: protein MAP2K4; average of three replicates
Quick reminder: number only, in K, skip the unit.

Consider the reported dTm for these molecules:
Cc1ccc(C(=O)Nc2ccc(CN3CCN(C)CC3)c(C(F)(F)F)c2)cc1C#Cc1c[nH]c2ncnc(N3CCOCC3)c12 [Compound 1] = 7.64
CCSc1nc(NC)c2c(-c3cccc(NC(=O)Nc4cc(C(C)(C)C)nn4-c4ccc(C)cc4)c3)c[nH]c2n1 [Compound 32] = 0.66
COc1cc(NC(=O)C2(C(=O)Nc3cccc(-c4c[nH]c5ncnc(N6CCOCC6)c45)c3)CC2)ccc1F [Compound 21] = 6.42

Now take the following molecule into account.
Challenge: Under ~100 representative kinases (Homo sapiens): dTm value of O=C(Nc1cccc(-c2c[nH]c3ncnc(N4CCOCC4)c23)c1)C1(C(=O)Nc2ccc(F)c(F)c2)CC1 [Compound 17] ?
Response given: 5.80
